- Tested on: Hs578T multi-cell spheroids, viability
- assayInfo: Anticancer human tumor Hs578T cell line growth inhibition [IpAb]; active means viability on the fitted dose curve at most 10% of control; inactive means the rest;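 further: drug exposure lasted 7 days before readout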
- conditionParameters: second compound 0.316 µM; first compound 1 µM
Result category, one only: active, inactive

Request: I'd appreciate the recorded outcome for Cc1nc(NC(=O)N2CCCC2C(N)=O)sc1-c1ccnc(C(C)(C)C(F)(F)F)c1 (stereo not given) + CC(C)NCC(C(=O)N1CCN(c2ncnc3c2C(C)CC3O)CC1)c1ccc(Cl)cc1 from this test.
Result: inactive

Request: Please state the recorded outcome for this compound: COc1c(OCCCN2CCOCC2)ccc2c3n(c(=NC(=O)c4cnc(N)nc4)nc12)CCN3 + CCN1CCN(Cc2ccc(Nc3ncc(F)c(-c4cc(F)c5nc(C)n(C(C)C)c5c4)n3)nc2)CC1
Result: active

Request: Outcome logged for C=CC(=O)N1CCN(c2nc(=O)n(-c3c(C)ccnc3C(C)C)c3nc(-c4c(O)cccc4F)c(F)cc23)C(C)C1 (stereo not given) + CCN1CCN(Cc2ccc(Nc3ncc(F)c(-c4cc(F)c5nc(C)n(C(C)C)c5c4)n3)nc2)CC1 in this assay:
Result: inactive

Request: In this assay, the call recorded for Cn1nccc1Nc1nccc(-c2ccn(C(CO)c3ccc(Cl)c(F)c3)c(=O)c2)n1 (stereo not given) + CCN1CCN(Cc2ccc(Nc3ncc(F)c(-c4cc(F)c5nc(C)n(C(C)C)c5c4)n3)nc2)CC1 was what?
Result: inactive

Request: Look up the recorded call for CC1(C)CCC(CN2CCN(c3ccc(C(=O)NS(=O)(=O)c4ccc(NCC5CCOCC5)c([N+](=O)[O-])c4)c(Oc4cnc5[nH]ccc5c4)c3)CC2)=C(c2ccc(Cl)cc2)C1 + CC(C)NCC(C(=O)N1CCN(c2ncnc3c2C(C)CC3O)CC1)c1ccc(Cl)cc1 in this test.
Result: inactive
